B1: Lysine-specific demethylase 5C, residues 319 to 373; numbered along this chain, P41229 (parent)
chain: AQFIESYVCRMCSRGDEDDKLLLCDGCDDNYHIFCLLPPLPEIPKGVWRCPKCVM

- Variants of: B1
- ASSAY_EXPLANATION: abundance fitness (aPCA) (normalised: wild type 0, dead -1); higher = more abundant; growth selection in yeast, the domain comes from the species named
- EXPERIMENTAL_SETUP: Homo sapiens
Label rule, in plain words: abundance fitness of -0.2 and up is criterion met, under -0.2 is criterion not met.

Asked: Tell me whether abundance fitness is at least -0.2 here: L23W
Given back: criterion not met

Asked: Tell me whether abundance fitness is at least -0.2 here: G15A
Given back: criterion met

Asked: Tell me whether abundance fitness is at least -0.2 here: H32Q
Given back: criterion not met

Asked: Tell me whether abundance fitness is at least -0.2 here: D25A
Given back: criterion met

Asked: Tell me whether abundance fitness is at least -0.2 here: H32N
Given back: criterion not met

Asked: Tell me whether abundance fitness is at least -0.2 here: Y31A
Given back: criterion not met

Asked: Tell me whether abundance fitness is at least -0.2 here: S6P
Given back: criterion met

Asked: Tell me whether abundance fitness is at least -0.2 here: D29F
Given back: criterion met

Asked: Tell me whether abundance fitness is at least -0.2 here: D25C
Given back: criterion not met

Asked: Tell me whether abundance fitness is at least -0.2 here: C27M
Given back: criterion not met

Asked: Tell me whether abundance fitness is at least -0.2 here: L22Q
Given back: criterion not met
